- Condition Notes: 318.15 K; 100 kPa; Liquid; Frequency=3 MHz; Linear variable-path acoustic interferometer
± gives the expanded uncertainty stated by the source.
Observation Type: speed of sound

Prompt: Would you kindly share the measured speed of sound for C=C(C)C(=O)OCC [ethyl 2-methylpropenoate] ?
Completion: 1104.6 ± 1.6 m/s

Prompt: Given C=C(C)C(=O)OCCCC [butyl 2-methyl-2-propenoate] , state its recorded speed of sound.
Completion: 1145.7 ± 1.7 m/s

Prompt: Quick check: speed of sound of CC#N ?
Completion: 1207.9 ± 1.6 m/s

Prompt: Sample C=C(C)C(=O)OC [methyl methacrylate] — what was its speed of sound?
Completion: 1118.3 ± 1.6 m/s
